Target: T1, CCR2 (human, UniProt P41597 1-374)
T1 construct: whole, on cells
T1 sequence (P41597 whole entry): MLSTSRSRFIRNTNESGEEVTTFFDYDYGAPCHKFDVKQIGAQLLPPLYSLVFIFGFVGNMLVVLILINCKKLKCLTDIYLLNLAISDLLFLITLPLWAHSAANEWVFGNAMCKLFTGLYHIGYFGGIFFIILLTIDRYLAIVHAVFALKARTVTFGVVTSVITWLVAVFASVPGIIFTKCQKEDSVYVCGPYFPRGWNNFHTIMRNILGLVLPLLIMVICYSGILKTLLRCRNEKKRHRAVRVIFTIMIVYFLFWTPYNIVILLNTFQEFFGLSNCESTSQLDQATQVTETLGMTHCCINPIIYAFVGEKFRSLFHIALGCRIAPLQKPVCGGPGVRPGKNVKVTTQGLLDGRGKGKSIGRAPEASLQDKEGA
Assay: biotin-labeled peptide on receptor-expressing cell lines, 125I-streptavidin
pKd: −log10 of the molar value. No end group written: not given here. *: point of attachment. Biotin = O=C1N[C@H]2[C@H](CS[C@H]2CCCCC(=O)*)N1
REPORTED_PROPERTY: pKd

Which pKd value belongs to Biotin-CLDPKQKWIQC (cysteine pairing not given here, also called biotinylated peptide) [N-terminal biotin conjugate of the sequence n'-CLDPKQKWIQC-c'] ?
< 5.00

All values here come from patent EP2386565A2.
